Assay Target: BiP ATPase domain (residues 28–405), His6-tag removed (human, UniProt P11021 28-405)
Sequence (P11021 28-405): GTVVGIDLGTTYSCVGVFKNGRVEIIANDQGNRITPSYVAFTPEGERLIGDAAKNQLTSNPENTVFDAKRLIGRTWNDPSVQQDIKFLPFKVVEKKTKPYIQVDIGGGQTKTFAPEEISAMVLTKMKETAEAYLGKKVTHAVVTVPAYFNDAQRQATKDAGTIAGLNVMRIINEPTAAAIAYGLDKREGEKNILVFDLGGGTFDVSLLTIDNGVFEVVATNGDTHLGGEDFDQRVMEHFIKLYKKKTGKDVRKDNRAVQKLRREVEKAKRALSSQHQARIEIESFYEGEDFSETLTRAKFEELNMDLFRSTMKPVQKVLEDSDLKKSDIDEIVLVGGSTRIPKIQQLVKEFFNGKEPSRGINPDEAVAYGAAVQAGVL
Measurement Description: MST
Recorded Endpoint: Kd (nM)
A number alone suffices; assume nM.

# input Look up Kd for this binder: Ire1 luminal domain region I–IV (residues 24–390) (domain or fragment) STVTLPETLLFVSTLDGSLHAVSKRTGSIKWTLKEDPVLQVPTHVEEPAFLPDPNDGSLYTLGSKNNEGLTKLPFTIPELVQASPCRSSDGILYMGKKQDIWYVIDLLTGEKQQTLSSAFADSLCPSTSLLYLGRTEYTITMYDTKTRELRWNATYFDYAASLPEDDVDYKMSHFVSNGDGLVVTVDSESGDVLWIQNYASPVVAFYVWQREGLRKVMHINVAVETLRYLTFMSGEVGRITKWKYPFPKETEAKSKLTPTLYVGKYSTSLYASPSMVHEGVAVVPRGSTLPLLEGPQTDGVTIGDKGECVITPSTDVKFDPGLKSKNKLNYLRNYWLLIGHHETPLSASTKMLERFPNNLPKHRENV
# output 1860
